- Test system: Streptozotocin-induced diabetic model rats
- measurement-protocol: Oral glucose tolerance test in streptozotocin-induced diabetic model rats (hypoglycemic effect)
- Format: in vivo, rat
- measurement-context: STZ diabetic SD/IGS rats; 1 mg/kg oral; glucose 2 g/kg oral; decrease in blood glucose ΔAUC 0-1 h relative to control group
assay-endpoint: STZ rat-OGTT (2 g/Kg) % inhibition ΔAUC0-1 h (mgh/dL) @1 mg/Kg (% inhibition)
Please give a number only; it is taken to be in % inhibition.

Answered cases to consult:
smiles-structure: Cc1cc(O)c([C@@H]2S[C@H](CO)[C@@H](O)[C@H](O)[C@H]2O)cc1Cc1ccc(CCCC(=O)NC(C)(C)CO)cc1
scale-unit: % inhibition
number: 70.4

smiles-structure: Cc1cc(O)c([C@@H]2S[C@H](CO)[C@@H](O)[C@H](O)[C@H]2O)cc1Cc1ccc(CCCNC(=O)NC(C)(C)CO)cc1
scale-unit: % inhibition
number: 69.2

smiles-structure: Cc1cc(O)c([C@@H]2S[C@H](CO)[C@@H](O)[C@H](O)[C@H]2O)cc1Cc1ccc(CCCC(=O)NC(C)(CO)CO)cc1
scale-unit: % inhibition
number: 65.4

smiles-structure: Cc1cc(O)c([C@@H]2S[C@H](CO)[C@@H](O)[C@H](O)[C@H]2O)cc1Cc1ccc(CCCC(=O)NC(CO)(CO)CO)cc1
scale-unit: % inhibition
number: 60.8

Pending compound:
// query Please report the recorded STZ rat-OGTT (2 g/Kg) % inhibition ΔAUC0-1 h (mgh/dL) @1 mg/Kg for Cc1cc(O)c([C@@H]2S[C@H](CO)[C@@H](O)[C@H](O)[C@H]2O)cc1Cc1ccc(CCCC(=O)NC(C)(C)C(N)=O)cc1 .
// result 66.5

---

Measured pIC50 accompanies every entry in the list below.
- system-under-test: human SGLT2 (Homo sapiens, UniProt P31639)
- Sequence (P31639 whole entry): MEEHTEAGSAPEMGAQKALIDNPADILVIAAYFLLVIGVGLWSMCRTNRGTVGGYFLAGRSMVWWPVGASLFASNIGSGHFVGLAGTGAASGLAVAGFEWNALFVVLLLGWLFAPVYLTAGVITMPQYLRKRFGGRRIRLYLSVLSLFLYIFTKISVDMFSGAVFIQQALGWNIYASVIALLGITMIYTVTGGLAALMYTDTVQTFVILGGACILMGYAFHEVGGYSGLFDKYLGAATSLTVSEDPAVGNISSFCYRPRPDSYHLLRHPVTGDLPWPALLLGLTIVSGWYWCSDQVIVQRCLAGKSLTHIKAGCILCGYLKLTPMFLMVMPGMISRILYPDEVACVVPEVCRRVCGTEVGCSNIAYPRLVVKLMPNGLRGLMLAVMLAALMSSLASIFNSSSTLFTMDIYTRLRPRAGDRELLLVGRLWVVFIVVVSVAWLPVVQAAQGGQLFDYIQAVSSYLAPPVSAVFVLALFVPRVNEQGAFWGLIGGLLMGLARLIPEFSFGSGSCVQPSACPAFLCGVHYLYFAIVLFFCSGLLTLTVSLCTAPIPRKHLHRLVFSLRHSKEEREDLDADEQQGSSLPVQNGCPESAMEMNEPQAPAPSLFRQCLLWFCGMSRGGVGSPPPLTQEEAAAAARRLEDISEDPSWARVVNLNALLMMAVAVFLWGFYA
- measurement-protocol: Inhibition test for sodium-dependent sugar uptake in CHO-K1 cells stably expressing human SGLT2
- measurement-context: [14C]methyl α-D-glucopyranoside uptake, 37° C., 1 hour, read-out: human SGLT2 IC50 (50% inhibition of sugar uptake)
// scale note: pIC50 = -log10(conc_M); give the bare number

smiles-structure: Cc1cc(O)c([C@@H]2S[C@H](CO)[C@@H](O)[C@H](O)[C@H]2O)cc1Cc1ccc(CCCC(=O)NC(C)(C)C(N)=O)cc1
pIC50: 7.31
--
smiles-structure: Cc1cc(O)c([C@@H]2S[C@H](CO)[C@@H](O)[C@H](O)[C@H]2O)cc1Cc1ccc(CCCNC(=O)NC(C)(C)CO)cc1
pIC50: 7.49

// query Record lookup: for human SGLT2 (Homo sapiens, UniProt P31639), what pIC50 belongs to Cc1cc(O)c([C@@H]2S[C@H](CO)[C@@H](O)[C@H](O)[C@H]2O)cc1Cc1ccc(CCCCC(=O)NC(C)(C)CO)cc1 ?
// result 7.42

// query // lookup pIC50 | system=human SGLT2 (Homo sapiens, UniProt P31639) | key= Cc1cc(O)c([C@@H]2S[C@H](CO)[C@@H](O)[C@H](O)[C@H]2O)cc1Cc1ccc(CCCC(=O)NC(CO)(CO)CO)cc1
// result 7.51

// query Enter reported pIC50 observed with human SGLT2 (Homo sapiens, UniProt P31639) for Cc1cc(O)c([C@@H]2S[C@H](CO)[C@@H](O)[C@H](O)[C@H]2O)cc1Cc1ccc(CCCC(=O)NC(C)(C)CO)cc1
// result 7.77

// query Value wanted: pIC50 (human SGLT2 (Homo sapiens, UniProt P31639)) of entry Cc1cc(CCCC(=O)NC(C)(C)CO)ccc1Cc1cc([C@@H]2S[C@H](CO)[C@@H](O)[C@H](O)[C@H]2O)c(O)cc1C
// result 7.00

// query Request - read-out pIC50 | tested on human SGLT2 (Homo sapiens, UniProt P31639) | compound Cc1cc(O)c([C@@H]2S[C@H](CO)[C@@H](O)[C@H](O)[C@H]2O)cc1Cc1ccc(CCCC(=O)NC(C)(CO)CO)cc1
// result 7.68
